# TESTED ON: T1, hGDF11 homodimer (human, UniProt O95390 299-407)
# T1 sequence (looked up): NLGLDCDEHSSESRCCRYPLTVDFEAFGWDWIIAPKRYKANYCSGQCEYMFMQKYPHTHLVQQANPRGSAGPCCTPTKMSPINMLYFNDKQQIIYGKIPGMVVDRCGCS
# TEST: SPR, antibody captured, 25 nM antigen
Assign criterion met to entries whose T1/2 meets or exceeds 1 h; assign criterion not met to the rest.

22-E6 (antibody, V domains shown) VH: QVQLVQSGPGLVKPSETLSLTCTVSGGSIITYSYYWGWIRQPPGKGLEWIGTIHHSGSTYYNPSLKSRVTISVDTSKNQFSLTLSSVTAADTAVYYCARDYYDSSGYYYNWFDPWGQGTMVTVSS VL: AIQMTQSPSSLSASVGDRVTITCRASQGIRNDLGWYQQKPGKAPKRLIYAASSLQSGVPSRFSGSGSGTEFTLTISSLQPEDFATYYCLQHNSSPWTFGQGTKVEIKR = criterion met
4B9 (antibody, V domains shown) VH: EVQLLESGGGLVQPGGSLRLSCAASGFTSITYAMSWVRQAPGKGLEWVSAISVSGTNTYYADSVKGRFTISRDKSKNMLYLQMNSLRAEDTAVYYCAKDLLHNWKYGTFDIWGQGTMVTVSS VL: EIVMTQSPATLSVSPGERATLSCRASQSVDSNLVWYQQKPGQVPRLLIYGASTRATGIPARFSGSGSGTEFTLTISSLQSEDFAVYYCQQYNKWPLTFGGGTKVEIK = criterion not met
3E2-1 (antibody, V domains shown) VH: QVQLQQWGAGLLKPSETLSLTCAVYGGSFSGYYWSWIRQPPGKGLEWIGEINHSGNTNYNPSLKSRVTISVDTSKNQFSLKLNSVTAADTAVYYCARREATVTPYFDYWGQGTLVTVSS VL: DIQLTQSPSFLSASVGDRVTITCWASQGISSYLAWYQQKPGKAPKLLIYAASTLQSGVPSRFSGSGSGTEFTLTISSLQPEDFATYYCQQLNSYPLTFGGGTKVEIK = criterion met
20B12 (antibody, V domains shown) VH: EVQLLESGGGLVQPGGSLRLSCAGSGITFSSYAMSWVRQAPGKGLEWVSAISGNGGTTNYADSVKGRFTISRDNSKNTLYLQMNSLRAEDTAVYYCAKERILTSSWTRYGIMDVWGQGTTVTVSS VL: EIVMTQSPATLSMSPGERATLSCRASQSVSSNLAWYQQKPGQAPRLLIYGASTRATGIPARFSGSGSGTEFTLTISSLQSEDFAVYYCQQYNNWPLTFGGGTKLEIK = criterion not met

Lab note: next binder to report on.
State whether the measured T1/2 reaches 1 h, counting equality as reaching it, for 3A4-3 (antibody, V domains shown) VH: QVQLVQSGGGLVKPGGSLRLSCAASGFIFNTYTMNWVRQAPGKGLEWVSSITSRGTYIFYSDSLKGRFTISRDNANNSLFLQMNSLRVEDTAVYYCSRDRGYTFGPDYWGQGTLVTVSS VL: DIQMTQSPSSLSASVGDRVTITCRASQDIRNDLGWYQQKPGKAPKGLIYAASSLQSGVPSRFSGSGSGTEFTLTISSLQPEDFATYHCLHYDFHPRTFGQGTKVEIK
criterion met
